These entries and their values trace back to patent US20240327446A1.

protocol-details: in vitro
Assay type: cell-based
condition-set: human
property: CC50 at 3 days

Recorded result, "[2H][C@@]1(O)[C@H](O)[C@@H](COC(=O)C(C)C)O[C@@]1(C#N)c1ccc2c(N)ncnn12" , CC50 at 3 days: > 50 µM
